Data provenance is PubChem BioAssay AID1159580.

assay: chemical genetic growth profiling, strain panel (AID 1159580);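 note: tested at 20 µM; growth read once vehicle control cultures reached saturation at 30 °C; lower values mean less growth of the strain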; details: S. cerevisiae deletion strains, growth OD, locus YPL051W, strain arl3
About 2,000 (36%) of roughly 5,500 compounds were called active. About 18% were inconclusive and are not listed. Cut-off read from the data, not from the text of the source: active = normalized growth mostly below about 0.91 (no sharp cut-off); inconclusive = no clear call, values can overlap the other calls; inactive = mostly above about 0.92. The list shows a part of the results.
Classes to choose from: active, inactive

## Input # fetch the recorded call for CC(=O)O[C@H]1C(=O)[C@@]2(C)C([C@H](OC(=O)c3ccccc3)[C@]3(O)C[C@H](OC(=O)[C@H](O)[C@@H](NC(=O)c4ccccc4)c4ccccc4)C(C)=C1C3(C)C)[C@]1(OC(C)=O)CO[C@@H]1C[C@@H]2O (stereo partly specified) here
## Output inactive

## Input # fetch the recorded call for N#Cc1c(Cl)c(Cl)c(Cl)c(C#N)c1Cl here
## Output active

## Input # fetch the recorded call for C1CCc2nnnn2CC1 here
## Output inactive

## Input # fetch the recorded call for O=C(O)COc1cc(Cl)c(Cl)cc1Cl here
## Output inactive

## Input # fetch the recorded call for COC(=O)COc1cc(Cl)c(Cl)cc1Cl here
## Output inactive

## Input # fetch the recorded call for CC1(C)C2CC[C@]3(C)C(C(=O)C=C4[C@H]5C[C@@](C)(C(=O)O)CC[C@]5(C)CC[C@]43C)[C@@]2(C)CC[C@@H]1O (stereo partly specified) here
## Output active

## Input # fetch the recorded call for Cc1cc(=O)c2c(O)c(C)c(O)cc2o1 here
## Output inactive

## Input # fetch the recorded call for N=c1nc(N2CCCCC2)cc(N)n1O here
## Output inactive

## Input # fetch the recorded call for COc1cc(O)c2c(=O)cc(C)oc2c1CC=C(C)C here
## Output inactive

## Input # fetch the recorded call for CCC(C(=O)O)c1ccccc1 (stereo unspecified) here
## Output inactive

## Input # fetch the recorded call for NCC1CCCCC1CC(=O)O (stereo unspecified) here
## Output inactive
